B1: CPEB3 Ribozyme (parent)
chain: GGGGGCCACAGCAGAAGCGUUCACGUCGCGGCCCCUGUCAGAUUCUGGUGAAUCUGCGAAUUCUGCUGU

# Variants of: B1
# Test name: self-cleavage, relative activity (ratio to wild type); higher = more cleavage; co-transcriptional
Attribute measured: self-cleavage
Field format: numeric only.

q: Provide measured self-cleavage value, entry: C6U A13G
a: 0.987

q: Provide measured self-cleavage value, entry: G25U A60U
a: 0.13

q: Provide measured self-cleavage value, entry: U21C U44A
a: 0.911

q: Provide measured self-cleavage value, entry: G4C U49C
a: 0.548

q: Provide measured self-cleavage value, entry: C22G C57A
a: 0.221

q: Provide measured self-cleavage value, entry: A23U U38G
a: 0.206

q: Provide measured self-cleavage value, entry: A51U G58C
a: 0.975

q: Provide measured self-cleavage value, entry: C35U A60U
a: 0.395

q: Provide measured self-cleavage value, entry: A13C C39G
a: 0.538

q: Provide measured self-cleavage value, entry: C24G G56C
a: 0.245

q: Provide measured self-cleavage value, entry: G1U C24U
a: 0.0825

q: Provide measured self-cleavage value, entry: U26A A42U
a: 0.863

q: Provide measured self-cleavage value, entry: G4C U43G
a: 0.26

q: Provide measured self-cleavage value, entry: C34G U38G
a: 0.202

q: Provide measured self-cleavage value, entry: U46A U53C
a: 0.971

q: Provide measured self-cleavage value, entry: C39G G41A
a: 0.486

q: Provide measured self-cleavage value, entry: A10G G50A
a: 0.949

q: Provide measured self-cleavage value, entry: G17C C45A
a: 0.119

q: Provide measured self-cleavage value, entry: G28U U44C
a: 0.181

q: Provide measured self-cleavage value, entry: C24G G28C
a: 0.224

q: Provide measured self-cleavage value, entry: G19A U62C
a: 0.231

q: Provide measured self-cleavage value, entry: G41U A42C
a: 0.389

q: Provide measured self-cleavage value, entry: G50A A52G
a: 1

q: Provide measured self-cleavage value, entry: G14C U49C
a: 0.55

q: Provide measured self-cleavage value, entry: A40U G41C
a: 0.592

q: Provide measured self-cleavage value, entry: G30C U64G
a: 0.455

q: Provide measured self-cleavage value, entry: C6G U36C
a: 0.184

q: Provide measured self-cleavage value, entry: G2A C45U
a: 0.117

q: Provide measured self-cleavage value, entry: C12U G68C
a: 1.01

q: Provide measured self-cleavage value, entry: C33A G58A
a: 0.811

q: Provide measured self-cleavage value, entry: A15C G58U
a: 0.936

q: Provide measured self-cleavage value, entry: U36G U61G
a: 0.179

q: Provide measured self-cleavage value, entry: G5C C22A
a: 0.107

q: Provide measured self-cleavage value, entry: A59U
a: 0.854

q: Provide measured self-cleavage value, entry: C32G A42U
a: 0.44

q: Provide measured self-cleavage value, entry: C32A A60G
a: 0.454

q: Provide measured self-cleavage value, entry: A10G U26G
a: 0.877

q: Provide measured self-cleavage value, entry: G14U C39A
a: 0.223

q: Provide measured self-cleavage value, entry: A42U C63A
a: 0.608

q: Provide measured self-cleavage value, entry: U26G U61C
a: 0.418

q: Provide measured self-cleavage value, entry: G5A U20A
a: 0.0737

q: Provide measured self-cleavage value, entry: A8U U69G
a: 1.06

q: Provide measured self-cleavage value, entry: U20C U36G
a: 0.116

q: Provide measured self-cleavage value, entry: G4A C63A
a: 0.483

q: Provide measured self-cleavage value, entry: G1A U43C
a: 0.0436

q: Provide measured self-cleavage value, entry: A16C U43C
a: 0.204

Origin of values: the RNAGym collection of RNA variant scans (doi:10.7554/elife.80360)
